systemName: PLpro from SARS-CoV-2 (Severe acute respiratory syndrome coronavirus 2)
assayOverview: biochemical
Type: biochemical
conditions: fluorogenic peptide assay, varied preincubation time

inputSmiles | Time dep. (time-dependent inhibition)
COC(=O)/C=C/C(=O)NNC(=O)CCc1ccc(NC(C)=O)cc1C(=O)N[C@H](C)c1cccc2ccccc12 | Yes
C[C@@H](NC(=O)c1ccccc1CCC(=O)NN)c1cccc2ccccc12 | No
C[C@@H](NC(=O)c1ccccc1CCC(=O)NNC(=O)CCl)c1cccc2ccccc12 | Yes
COC(=O)/C=C/C(=O)NNC(=O)CCc1ccccc1C(=O)N[C@H](C)c1cccc2ccccc12 | Yes

----------
assayOverview: Metabolic stability in mouse liver microsomes
conditions: CD-1, mouse
readoutType: half-life (min)
The answer is to be given in min; state only the numeric part.

The examples below pair each entry with its known result.
compound | half-life / min
COC(=O)/C=C/C(=O)NNC(=O)CCc1ccccc1C(=O)N[C@H](C)c1cccc2ccccc12 | 13
CC(C)NCC(O)COc1cccc2ccccc12 (stereo not shown) [propranolol, reference compound] | 20

Recorded half-life of C[C@@H](NC(=O)c1ccccc1CCC(=O)NNC(=O)CCl)c1cccc2ccccc12 , please.
5

Recorded half-life of Cc1ccccc1C(=O)N[C@H](C)c1cccc2ccccc12 , please.
16

----------
assayOverview: Pharmacokinetics in male ICR mice (IV and PO)
conditions: male, ICR (CD-1), mouse, plasma, iv, 3 mg/kg
readoutType: half-life (min)
The answer is to be given in min; state only the numeric part.

Recorded half-life of COC(=O)/C=C/C(=O)NNC(=O)CCc1ccccc1C(=O)N[C@H](C)c1cccc2ccccc12 , please.
3.6

----------
assayOverview: in vitro
conditions: African green monkey
readoutType: cytotoxicity at 10 µM (%)
The answer is to be given in %; state only the numeric part.

Recorded cytotoxicity at 10 µM of COC(=O)/C=C/C(=O)NNC(=O)CCc1ccccc1C(=O)N[C@H](C)c1cccc2ccccc12 , please.
27.4

----------
systemName: USP4 (Homo sapiens)
Construct: purchased LifeSensors, Inc. (Malvern, PA)
assayOverview: DUB selectivity assay, USP4 (Ub-rhodamine110)
Format: biochemical
conditions: USP4 10 nM, Ub-rhodamine110; read-out: IC50
Measured IC50 of individual entries

compound | recordedMeasurement
C[C@@H](NC(=O)c1ccccc1CCC(=O)NNC(=O)CCl)c1cccc2ccccc12 [Compound 9] | > 30 µM

Recorded IC50 of CC(=O)Nc1ccc(C)c(C(=O)N[C@H](C)c2cccc3ccccc23)c1 [Compound 15] , please.
> 30 µM

----------
System: SARS-CoV-2 USA-WA1/2020
assayOverview: CPE assay, neutral red, Vero E6 cells with 2 μM CP-100356, USA-WA1/2020
Type: cell-based
conditions: USA-WA1/2020, Vero E6, 2 μM CP-100356
readoutType: EC50 (nM)
The answer is to be given in nM; state only the numeric part.

Recorded EC50 of O=c1nc(NO)ccn1[C@@H]1O[C@H](CO)[C@@H](O)[C@H]1O [EIDD-1931] , please.
300

----------
systemName: UCHL1 (Homo sapiens, UniProt P09936)
Sequence (P09936 whole entry): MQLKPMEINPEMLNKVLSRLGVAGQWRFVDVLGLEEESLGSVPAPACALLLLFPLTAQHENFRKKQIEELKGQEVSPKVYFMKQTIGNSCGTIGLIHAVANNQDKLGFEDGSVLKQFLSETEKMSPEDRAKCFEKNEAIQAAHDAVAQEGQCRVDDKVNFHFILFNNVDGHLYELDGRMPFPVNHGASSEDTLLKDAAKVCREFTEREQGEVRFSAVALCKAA
pIC50: −log10 of the molar value.
Measured pIC50 of individual entries

The examples below pair each entry with its known result.
inputSmiles | readoutType | recordedMeasurement
CC(=O)Nc1ccc(C)c(C(=O)N[C@H](C)c2cccc3ccccc23)c1 | pIC50 | < 4.52
C[C@@H](NC(=O)c1ccccc1CCC(=O)NNC(=O)CCl)c1cccc2ccccc12 | pIC50 | < 4.52

Proceeding to the next compound to report its pIC50.
Recorded pIC50 of COC(=O)/C=C/C(=O)NNC(=O)CCc1ccccc1C(=O)N[C@H](C)c1cccc2ccccc12 , please.
< 4.52

----------
assayOverview: in vitro
conditions: human
readoutType: cytotoxicity at 10 µM (%)
The answer is to be given in %; state only the numeric part.

Recorded cytotoxicity at 10 µM of COC(=O)/C=C/C(=O)NNC(=O)CCc1ccccc1C(=O)N[C@H](C)c1cccc2ccccc12 [Compound 7] , please.
18.1

----------
assayOverview: in vitro
conditions: African green monkey, cytotoxicity, %cell viability
readoutType: viability at 48 h, 33.33 µM (%)
The answer is to be given in %; state only the numeric part.

The examples below pair each entry with its known result.
molecule | unitLabel | viability at 48 h, 33.33 µM
C[C@@H](NC(=O)c1ccccc1CCC(=O)NNC(=O)CC#N)c1cccc2ccccc12 [Compound 11] | % | 80.8
COC(=O)/C=C/C(=O)NNC(=O)CCc1ccc(NC(C)=O)cc1C(=O)N[C@H](C)c1cccc2ccccc12 [Compound 8] | % | 75.6
C#CC(=O)NNC(=O)CCc1ccccc1C(=O)N[C@H](C)c1cccc2ccccc12 [Compound 12] | % | 1.02
CC(=O)Nc1ccc(CCC(=O)NNC(=O)CCl)c(C(=O)N[C@H](C)c2cccc3ccccc23)c1 [Compound 10] | % | 73.4

Recorded viability at 48 h, 33.33 µM of CC(=O)Nc1ccc(C)c(C(=O)N[C@H](C)c2cccc3ccccc23)c1 [Compound 15] , please.
64.9

----------
Test system: SARS-CoV-2 isolate USA-WA1/2020
conditions: read-out: cytopathic effect, % cell viability; [inhibitor] 8.33 uM; duplicate wells; 8.33 µM
Measured inhibition of individual entries
Write the figure, then the unit, nothing else.

inputSmiles | inhibition
COC(=O)/C=C/C(=O)NNC(=O)CCc1ccc(NC(C)=O)cc1C(=O)N[C@H](C)c1cccc2ccccc12 | 2.82%
C[C@@H](NC(=O)c1ccccc1CCC(=O)NN)c1cccc2ccccc12 | 8.31%

Recorded inhibition of C[C@@H](NC(=O)c1ccccc1CCC(=O)NNC(=O)CCl)c1cccc2ccccc12 , please.
17.9%

Recorded inhibition of CC(=O)Nc1ccc(C)c(C(=O)N[C@H](C)c2cccc3ccccc23)c1 , please.
3.31%

----------
assayOverview: in vitro
conditions: African green monkey, cytotoxicity, %cell viability
readoutType: viability at 48 h, 2.08 µM (%)
The answer is to be given in %; state only the numeric part.

The examples below pair each entry with its known result.
compound | recordedMeasurement
COC(=O)/C=C/C(=O)NNC(=O)CCc1ccc(NC(C)=O)cc1C(=O)N[C@H](C)c1cccc2ccccc12 [Compound 8] | 83.7
C[C@@H](NC(=O)c1ccccc1CCC(=O)NNC(=O)C(C#N)=CC1CC1)c1cccc2ccccc12 [Compound 13] | 83.5
C[C@@H](NC(=O)c1ccccc1CCC(=O)NNC(=O)CCl)c1cccc2ccccc12 [Compound 9] | 102

Recorded viability at 48 h, 2.08 µM of Cc1ccccc1C(=O)N[C@H](C)c1cccc2ccccc12 [Compound 14] , please.
100

Recorded viability at 48 h, 2.08 µM of COC(=O)CCc1ccccc1C(=O)N[C@H](C)c1cccc2ccccc12 [Compound 3] , please.
105

Recorded viability at 48 h, 2.08 µM of C[C@@H](NC(=O)c1ccccc1CCC(=O)NN)c1cccc2ccccc12 [Compound 5] , please.
101

Recorded viability at 48 h, 2.08 µM of C[C@@H](NC(=O)c1ccccc1CCC(=O)NNC(=O)CC#N)c1cccc2ccccc12 [Compound 11] , please.
101

Recorded viability at 48 h, 2.08 µM of CC(=O)Nc1ccc(C)c(C(=O)N[C@H](C)c2cccc3ccccc23)c1 [Compound 15] , please.
85.5

Recorded viability at 48 h, 2.08 µM of CC(=O)Nc1ccc(CCC(=O)NNC(=O)CCl)c(C(=O)N[C@H](C)c2cccc3ccccc23)c1 [Compound 10] , please.
92.2

----------
systemName: USP4 (Homo sapiens, UniProt Q13107)
Construct: purchased LifeSensors, Inc. (Malvern, PA)
Sequence (Q13107 whole entry): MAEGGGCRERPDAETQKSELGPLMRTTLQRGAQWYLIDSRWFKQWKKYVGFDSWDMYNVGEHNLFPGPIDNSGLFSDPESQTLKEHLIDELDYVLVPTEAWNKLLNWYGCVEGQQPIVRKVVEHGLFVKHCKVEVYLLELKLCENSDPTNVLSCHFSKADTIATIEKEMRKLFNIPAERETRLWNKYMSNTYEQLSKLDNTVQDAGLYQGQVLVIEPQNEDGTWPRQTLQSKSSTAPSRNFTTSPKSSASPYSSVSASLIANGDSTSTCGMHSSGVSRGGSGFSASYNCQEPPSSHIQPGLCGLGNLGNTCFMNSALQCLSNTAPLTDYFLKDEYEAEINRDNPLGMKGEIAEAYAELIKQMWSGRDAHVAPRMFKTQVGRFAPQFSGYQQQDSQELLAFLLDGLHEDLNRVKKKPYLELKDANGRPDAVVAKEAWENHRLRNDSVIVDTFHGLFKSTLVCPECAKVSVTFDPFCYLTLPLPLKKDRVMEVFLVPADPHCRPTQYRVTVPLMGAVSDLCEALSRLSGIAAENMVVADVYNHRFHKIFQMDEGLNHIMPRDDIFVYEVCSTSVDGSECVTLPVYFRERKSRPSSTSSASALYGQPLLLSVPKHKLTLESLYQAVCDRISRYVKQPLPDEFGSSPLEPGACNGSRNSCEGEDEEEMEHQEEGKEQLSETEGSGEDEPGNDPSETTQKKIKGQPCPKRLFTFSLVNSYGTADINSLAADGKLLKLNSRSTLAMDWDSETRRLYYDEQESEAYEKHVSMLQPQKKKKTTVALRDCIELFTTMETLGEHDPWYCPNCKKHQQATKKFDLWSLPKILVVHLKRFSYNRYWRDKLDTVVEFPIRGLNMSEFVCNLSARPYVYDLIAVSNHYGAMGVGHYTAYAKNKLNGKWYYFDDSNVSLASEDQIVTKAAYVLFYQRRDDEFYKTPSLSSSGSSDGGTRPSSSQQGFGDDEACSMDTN
assayOverview: DUB selectivity assay, USP4 (Ub-rhodamine110)
Format: biochemical
readoutType: IC50

Recorded IC50 of COC(=O)/C=C/C(=O)NNC(=O)CCc1ccccc1C(=O)N[C@H](C)c1cccc2ccccc12 [Compound 7] , please.
> 30 µM

----------
assayOverview: Metabolic stability in mouse liver S9 fraction
conditions: CD-1, mouse
readoutType: half-life (min)
The answer is to be given in min; state only the numeric part.

The examples below pair each entry with its known result.
molecule | recordedMeasurement
COC(=O)/C=C/C(=O)NNC(=O)CCc1ccccc1C(=O)N[C@H](C)c1cccc2ccccc12 | 9
C[C@@H](NC(=O)c1ccccc1CCC(=O)NNC(=O)CCl)c1cccc2ccccc12 | 4

Recorded half-life of CC(C)NCC(O)COc1cccc2ccccc12 (stereo not shown) [propranolol, reference compound] , please.
6

Recorded half-life of Cc1ccccc1C(=O)N[C@H](C)c1cccc2ccccc12 , please.
18

----------
systemName: PLpro from SARS-CoV-2 (Severe acute respiratory syndrome coronavirus 2)
assayOverview: biochemical
Format: biochemical
conditions: 0.5 h, inhibitor 2.01 uM
readoutType: remaining activity at 2.01 µM (%)
The answer is to be given in %; state only the numeric part.

Recorded remaining activity at 2.01 µM of Cc1ccccc1C(=O)N[C@H](C)c1cccc2ccccc12 [Compound 14] , please.
90.5

Recorded remaining activity at 2.01 µM of CC(=O)Nc1ccc(C)c(C(=O)N[C@H](C)c2cccc3ccccc23)c1 [Compound 15] , please.
61.8

Recorded remaining activity at 2.01 µM of C[C@@H](NC(=O)c1ccccc1CCC(=O)NNC(=O)CC#N)c1cccc2ccccc12 [Compound 11] , please.
71.3

Recorded remaining activity at 2.01 µM of CC(=O)Nc1ccc(CCC(=O)NNC(=O)CCl)c(C(=O)N[C@H](C)c2cccc3ccccc23)c1 [Compound 10] , please.
80.3
